# METHOD DESCRIPTION: in vivo
# CONDITION CONTEXT: mouse, iv, 60 mg/kg
REPORTED METRIC: concentration at 24 h (ng/g)
Answers are plain numbers, in ng/g.

Query: Return concentration at 24 h (reported value) for this molecule: C=CCNC1=C2CC(C)CC(OC)C(O)C(C)C=C(C)C(OC(N)=O)C(OC)C=CC=C(C)C(=O)NC(=CC1=O)C2=O (stereo not shown) [17-AAG, 17-allylaminogeldanamycin]
Result: 100
